Data origin, for the record: PubChem BioAssay

test system: Human papillomavirus type 1a protein E7 (residues 44-93); assay: HPV1a E7 fragment binders on microarrays, primary screen, biochemical, small-molecule microarray, residues 44-93, 635 nm fluorescence (AID 1108); settings: small-molecule microarray binding, fluorescence 635 nm; higher = more signal;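 further: E7 fragment applied at 1 µg/mL in TBST for 1 h at 4 C; score combines spot fluorescence with its signal to noise ratio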
Lab note: class by composite z-score, see low = under 0.2, middle = from 0.2 up to 0.7, high = 0.7 and over

Sample answers from the record:
{"columns": ["compound", "category label"],
 "data": [
  ["CC[C@@H](c1ccccc1)n1c(=O)n2n(c1=O)[C@H]1[C@H](O)[C@@H]3O[C@@H]3C(=NOCc3ccccc3)[C@H]1CC2", "middle"],
  ["CSCC[C@@H]1NC(=O)CC=C[C@@H](C)COC(=O)[C@H](C)COC1=O", "low"],
  ["COC(=O)[C@H](CCSC)NC(=O)CC=C[C@@H](C)CO", "middle"],
  ["C[C@@H]1CC[C@H]2C(=O)N3[C@@H](CC[C@@H](C)[C@@H]3c3ccc(Br)cc3)C(=O)N2[C@H]1c1ccc(Br)cc1", "low"],
  ["CC#CCOCCC=C1c2ccccc2[C@@H](OC)[C@@H]1C", "low"]
]}

Tag the class for CC(C)=CCCC(C)=CCON=C1C[C@@H](O)[C@@H](O)[C@@H]2[C@@H]3C(=O)N(Cc4ccc5c(c4)OCO5)C(=O)[C@@H]3CC[C@H]12
high

Band of C[C@H]1CC[C@H]2C(=O)OC(COc3ccc(C(C)(C)C)cc3)CN2[C@@H]1c1ccc(Br)cc1 (some centres undefined) ?
high

Which category does the recorded composite z-score put CO[C@H]1COC(=O)CCC[C@H](C)[C@@H](OC)COC(=O)CC=C[C@@H]1C in?
low
